B1: TOR1AIP2 (parent)
chain: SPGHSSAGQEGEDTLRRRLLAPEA

variants of: B1; assay: protein stability index of a GFP-peptide fusion (GPS, HEK-293T) (PSI 1-6); higher = more stable; conditions: c terminus: a fixed tail appended;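 note: lentivirally expressed fusions sorted by FACS into six bins by GFP to DsRed ratio, PSI derived from sequencing read proportions per bin multiplied by bin number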
METRIC_NAME: protein stability index
I'd appreciate a reply containing only the number, no unit.

Please review the entries below; each comes with its answer.
In [3]: df
Out[3]:
                   sequence_record  result_value
0  SPGHSSAGQEGEDTLRRRLMAPEA [L20M]          5.01
1   SRGHSSAGQEGEDTLRRRLLAPEA [P2R]          4.47
2  SPGHSSAGQEGEDTLRPRLLAPEA [R17P]          5.04
3  SPGHSSAGQEGEDTLRRRLLVPEA [A21V]          4.86
4   SPGHSMAGQEGEDTLRRRLLAPEA [S6M]          4.02
5  SPGHSSAGQEGEDTPRRRLLAPEA [L15P]          5.23
6  SPGHSSAGQEAEDTLRRRLLAPEA [G11A]             4
7   SPGHSSKGQEGEDTLRRRLLAPEA [A7K]          3.66
8  SPGHSSAGQCGEDTLRRRLLAPEA [E10C]          2.67
9   SGGHSSAGQEGEDTLRRRLLAPEA [P2G]          4.22

What protein stability index value was documented for this variant, SPGHSSAGQEGEATLRRRLLAPEA [D13A] ?
3.19

Subsequent entry: SPGHSSAGTEGEDTLRRRLLAPEA [Q9T]
3.96

Also check SPGHSSAGQEGEFTLRRRLLAPEA [D13F]
3.02

Now give it for SPGPSSAGQEGEDTLRRRLLAPEA [H4P] too.
4.49

Another variant to check: HPGHSSAGQEGEDTLRRRLLAPEA [S1H]
4.57

Same for SPGHSSAGQEGEDSLRRRLLAPEA [T14S]
3.08

Now the variant SPGHSSAGQEGEDTLRRRLLAPNA [E23N]
4.46
